# experimental target: 5-HT7 (Homo sapiens, UniProt P34969)
# Construct: gene HTR7; human recombinant receptor, crude membranes of HEK293 or CHO cells
# Sequence (P34969 whole entry): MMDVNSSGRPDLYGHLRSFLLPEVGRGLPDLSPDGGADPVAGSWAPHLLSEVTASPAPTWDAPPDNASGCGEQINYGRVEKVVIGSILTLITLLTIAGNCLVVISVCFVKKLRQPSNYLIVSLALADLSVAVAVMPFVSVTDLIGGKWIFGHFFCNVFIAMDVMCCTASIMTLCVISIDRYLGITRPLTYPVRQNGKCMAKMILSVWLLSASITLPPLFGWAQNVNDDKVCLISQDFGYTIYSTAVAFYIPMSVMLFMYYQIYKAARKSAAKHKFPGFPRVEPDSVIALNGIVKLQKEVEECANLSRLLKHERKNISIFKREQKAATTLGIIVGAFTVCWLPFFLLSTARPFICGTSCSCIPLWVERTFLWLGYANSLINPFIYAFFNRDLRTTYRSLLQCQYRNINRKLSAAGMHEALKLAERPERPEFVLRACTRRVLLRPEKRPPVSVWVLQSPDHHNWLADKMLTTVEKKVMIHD
# assay notes: biochemical
# Set-up: species or system HEK293 or CHO; competitive radioligand binding on crude membranes, filtration and scintillation counting
# assay setup: read-out: Ki (nM), 7
// classify: if (Ki < 400 nM) rule met else rule not met

C[C@@H]1CNCCN1c1ncc(F)c(O[C@H](C)c2ccc(F)cc2)n1 [(R,R)-4e]
rule met
C[C@@H]1CNCCN1c1ncc(F)c(O[C@H](C)c2cccc(F)c2)n1 [(R,R)-4d]
rule not met
C[C@H](Cc1cccc(F)c1)Oc1nc(N2CCNC[C@H]2C)ncc1F
rule met
C[C@H](Oc1nc(N2CCNC[C@H]2C)ncc1F)c1cccc(F)c1 [(S,R)-4d]
rule not met

Next, consider the following compound.
Does C[C@H](Oc1nc(N2CCNC[C@H]2C)ncc1F)c1ccc(F)cc1 [(S,R)-4e] have Ki strictly under 400 nM?
rule not met

---

# experimental target: 5-HT5A (Homo sapiens, UniProt P47898)
# Construct: gene HTR5A; human recombinant receptor, crude membranes of HEK293 or CHO cells
# Sequence (P47898 whole entry): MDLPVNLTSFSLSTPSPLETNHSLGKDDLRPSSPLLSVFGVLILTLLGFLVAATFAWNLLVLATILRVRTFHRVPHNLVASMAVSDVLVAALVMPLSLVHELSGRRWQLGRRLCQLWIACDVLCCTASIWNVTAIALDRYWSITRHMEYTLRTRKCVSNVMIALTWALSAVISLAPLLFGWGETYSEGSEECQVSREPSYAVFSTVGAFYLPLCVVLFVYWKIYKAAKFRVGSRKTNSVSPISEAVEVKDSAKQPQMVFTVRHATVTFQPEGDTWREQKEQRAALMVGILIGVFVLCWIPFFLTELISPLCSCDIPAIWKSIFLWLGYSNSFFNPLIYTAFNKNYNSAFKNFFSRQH
# assay notes: biochemical
# Parameters: species or system HEK293 or CHO; competitive radioligand binding on crude membranes, filtration and scintillation counting
Please mark Y if the recorded inhibition at 10 µM is equal to or greater than 30%, and N if it falls below.

C[C@@H]1CNCCN1c1ncc(F)c(O[C@H](C)c2ccc(F)cc2)n1 [(R,R)-4e]
N

inhibition at 10 µM >= 30% for C[C@@H]1CNCCN1c1ncc(F)c(O[C@H](C)c2cccc(F)c2)n1 [(R,R)-4d] ?
N

inhibition at 10 µM >= 30% for C[C@H](Cc1cccc(F)c1)Oc1nc(N2CCNC[C@H]2C)ncc1F ?
Y

inhibition at 10 µM >= 30% for C[C@H](Oc1nc(N2CCNC[C@H]2C)ncc1F)c1ccc(F)cc1 [(S,R)-4e] ?
N

inhibition at 10 µM >= 30% for C[C@H](Oc1nc(N2CCNC[C@H]2C)ncc1F)c1cccc(F)c1 [(S,R)-4d] ?
N

---

# experimental target: 5-HT6 (Homo sapiens, UniProt P50406)
# Construct: gene HTR6; human recombinant receptor, crude membranes of HEK293 or CHO cells
# Sequence (P50406 whole entry): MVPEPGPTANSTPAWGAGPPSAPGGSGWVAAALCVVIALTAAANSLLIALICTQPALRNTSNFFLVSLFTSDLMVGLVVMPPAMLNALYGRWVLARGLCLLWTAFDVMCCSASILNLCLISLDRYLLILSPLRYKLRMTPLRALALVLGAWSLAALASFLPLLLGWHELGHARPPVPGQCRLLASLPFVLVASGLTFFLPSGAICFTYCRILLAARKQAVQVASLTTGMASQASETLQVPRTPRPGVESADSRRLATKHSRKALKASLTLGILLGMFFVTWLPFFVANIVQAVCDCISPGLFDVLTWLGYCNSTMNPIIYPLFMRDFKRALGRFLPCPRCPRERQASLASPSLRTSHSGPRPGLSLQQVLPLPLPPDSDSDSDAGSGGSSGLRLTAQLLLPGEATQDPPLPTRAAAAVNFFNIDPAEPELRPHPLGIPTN
# assay notes: biochemical
# Parameters: species or system HEK293 or CHO; competitive radioligand binding on crude membranes, filtration and scintillation counting
assay readout: inhibition at 10 µM (%)
Number only, in %; omit the unit.

Solved cases (3 shown):
C[C@H](Oc1nc(N2CCNC[C@H]2C)ncc1F)c1cccc(F)c1 [(S,R)-4d]
91.6
C[C@@H]1CNCCN1c1ncc(F)c(O[C@H](C)c2ccc(F)cc2)n1 [(R,R)-4e]
97.4
C[C@@H]1CNCCN1c1ncc(F)c(O[C@H](C)c2cccc(F)c2)n1 [(R,R)-4d]
95.7

Just so you know, measured inhibition at 10 µM for C[C@H](Oc1nc(N2CCNC[C@H]2C)ncc1F)c1ccc(F)cc1 [(S,R)-4e] came out at 86.1

Just so you know, measured inhibition at 10 µM for C[C@H](Cc1cccc(F)c1)Oc1nc(N2CCNC[C@H]2C)ncc1F [compound 3, pyrimidine analogue 3] came out at 93.8

---

Listing: Ki of selected compounds
# experimental target: 5-HT1A (Homo sapiens)
# Construct: gene HTR1A; human recombinant receptor, crude membranes of HEK293 or CHO cells
# Sequence (P08908 1-422): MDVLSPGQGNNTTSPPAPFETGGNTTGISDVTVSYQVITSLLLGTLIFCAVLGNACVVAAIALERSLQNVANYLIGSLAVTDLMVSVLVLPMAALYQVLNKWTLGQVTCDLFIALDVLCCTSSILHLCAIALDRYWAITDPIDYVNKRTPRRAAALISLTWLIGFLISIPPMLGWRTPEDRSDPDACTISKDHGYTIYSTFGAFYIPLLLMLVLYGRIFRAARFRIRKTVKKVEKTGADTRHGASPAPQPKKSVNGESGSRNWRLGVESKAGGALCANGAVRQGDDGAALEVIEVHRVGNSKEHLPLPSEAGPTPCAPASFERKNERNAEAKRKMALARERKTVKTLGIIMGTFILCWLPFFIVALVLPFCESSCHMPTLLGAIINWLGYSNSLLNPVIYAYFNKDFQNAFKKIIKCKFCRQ
# assay notes: biochemical
# Set-up: species or system HEK293 or CHO; competitive radioligand binding on crude membranes, filtration and scintillation counting
# assay setup: read-out: Ki (nM), 1A
Number only, in nM; omit the unit.

Solved cases (3 shown):
C[C@H](Cc1cccc(F)c1)Oc1nc(N2CCNC[C@H]2C)ncc1F
353
C[C@H](Oc1nc(N2CCNC[C@H]2C)ncc1F)c1ccc(F)cc1 [(S,R)-4e]
1120
C[C@@H]1CNCCN1c1ncc(F)c(O[C@H](C)c2cccc(F)c2)n1 [(R,R)-4d]
98

Read the next record carefully.
Just so you know, measured Ki for C[C@H](Oc1nc(N2CCNC[C@H]2C)ncc1F)c1cccc(F)c1 [(S,R)-4d] came out at 806

---

# experimental target: 5-HT2B (Homo sapiens, UniProt P41595)
# Construct: gene HTR2B; human recombinant receptor; crude membrane fractions of transfected HEK293 or CHO cells
# Sequence (P41595 whole entry): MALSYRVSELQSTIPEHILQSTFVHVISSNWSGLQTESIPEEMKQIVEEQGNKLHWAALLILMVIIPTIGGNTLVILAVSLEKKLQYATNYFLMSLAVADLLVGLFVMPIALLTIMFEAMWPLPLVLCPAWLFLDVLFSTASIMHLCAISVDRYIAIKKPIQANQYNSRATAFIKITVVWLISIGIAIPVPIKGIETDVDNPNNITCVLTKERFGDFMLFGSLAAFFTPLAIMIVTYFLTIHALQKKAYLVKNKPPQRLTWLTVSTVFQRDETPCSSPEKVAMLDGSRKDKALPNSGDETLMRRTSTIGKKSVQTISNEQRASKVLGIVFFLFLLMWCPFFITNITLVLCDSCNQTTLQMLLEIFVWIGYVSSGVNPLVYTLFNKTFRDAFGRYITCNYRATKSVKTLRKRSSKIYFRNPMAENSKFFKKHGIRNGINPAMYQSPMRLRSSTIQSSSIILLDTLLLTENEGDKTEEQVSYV
# assay notes: radioligand displacement, membranes
# Assay type: binding
Listing: pKi of selected molecules
By convention, pKi is the negative base-10 log of a molar concentration.

C[C@@H]1CNCCN1c1ncc(F)c(O[C@H](C)c2ccc(F)cc2)n1 [(R,R)-4e]
7.72
C[C@H](Oc1nc(N2CCNC[C@H]2C)ncc1F)c1ccc(F)cc1 [(S,R)-4e]
6.89
C[C@H](Oc1nc(N2CCNC[C@H]2C)ncc1F)c1cccc(F)c1 [(S,R)-4d]
7.17

Read the next record carefully.
Just so you know, measured pKi for C[C@@H]1CNCCN1c1ncc(F)c(OCCCc2cccc(F)c2)n1 came out at 7.62

---

# experimental target: 5-HT7 (Homo sapiens, UniProt P34969)
# Construct: gene HTR7; human recombinant receptor, crude membranes of HEK293 or CHO cells
# assay notes: biochemical
# Parameters: species or system HEK293 or CHO; competitive radioligand binding on crude membranes, filtration and scintillation counting
Listing: inhibition at 10 µM of selected compounds
Number only, in %; omit the unit.

Solved cases (3 shown):
C[C@@H]1CNCCN1c1ncc(F)c(O[C@H](C)c2ccc(F)cc2)n1 [(R,R)-4e]
87.6
C[C@H](Oc1nc(N2CCNC[C@H]2C)ncc1F)c1ccc(F)cc1 [(S,R)-4e]
64.8
C[C@H](Cc1cccc(F)c1)Oc1nc(N2CCNC[C@H]2C)ncc1F
94.7

Just so you know, measured inhibition at 10 µM for C[C@@H]1CNCCN1c1ncc(F)c(O[C@H](C)c2cccc(F)c2)n1 [(R,R)-4d] came out at 84.4

Just so you know, measured inhibition at 10 µM for C[C@H](Oc1nc(N2CCNC[C@H]2C)ncc1F)c1cccc(F)c1 [(S,R)-4d] came out at 56.9

---

Listing: inhibition at 10 µM of selected compounds
# experimental target: 5-HT3 (Homo sapiens)
# Construct: gene HTR3A; human recombinant receptor, crude membranes of HEK293 or CHO cells
# Sequence (P46098 1-478): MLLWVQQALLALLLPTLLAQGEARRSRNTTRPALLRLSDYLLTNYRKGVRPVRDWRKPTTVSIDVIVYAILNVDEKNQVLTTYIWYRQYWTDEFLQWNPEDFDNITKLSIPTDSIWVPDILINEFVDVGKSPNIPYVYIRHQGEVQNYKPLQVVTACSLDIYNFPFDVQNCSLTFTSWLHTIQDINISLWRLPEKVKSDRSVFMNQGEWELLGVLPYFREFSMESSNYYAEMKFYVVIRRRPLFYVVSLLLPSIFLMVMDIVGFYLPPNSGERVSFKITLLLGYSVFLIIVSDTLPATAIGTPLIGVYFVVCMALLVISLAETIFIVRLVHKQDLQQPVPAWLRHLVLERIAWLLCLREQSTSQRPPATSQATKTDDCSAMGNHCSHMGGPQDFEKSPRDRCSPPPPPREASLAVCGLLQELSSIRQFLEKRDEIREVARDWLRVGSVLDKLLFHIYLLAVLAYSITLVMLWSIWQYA
# assay notes: biochemical
# Parameters: species or system HEK293 or CHO; competitive radioligand binding on crude membranes, filtration and scintillation counting
Number only, in %; omit the unit.

C[C@H](Oc1nc(N2CCNC[C@H]2C)ncc1F)c1cccc(F)c1 [(S,R)-4d]
78.6
C[C@@H]1CNCCN1c1ncc(F)c(O[C@H](C)c2ccc(F)cc2)n1 [(R,R)-4e]
87.8
C[C@@H]1CNCCN1c1ncc(F)c(O[C@H](C)c2cccc(F)c2)n1 [(R,R)-4d]
89.4
C[C@H](Cc1cccc(F)c1)Oc1nc(N2CCNC[C@H]2C)ncc1F [compound 3, pyrimidine analogue 3]
75

Read the next record carefully.
Just so you know, measured inhibition at 10 µM for C[C@H](Oc1nc(N2CCNC[C@H]2C)ncc1F)c1ccc(F)cc1 [(S,R)-4e] came out at 70.1
